# Measurement Protocol: Plasma pharmacokinetics of HSK7653 after first and last oral dose
# Format: in vivo, human
# Condition Notes: human, plasma, po
Recorded Metric: Vd/F

Please report the recorded Vd/F for CS(=O)(=O)n1cc2c(n1)CN([C@@H]1C[C@H](N)[C@@H](c3cc(F)ccc3F)O[C@@H]1C(F)(F)F)C2 [HSK7653] . 61.1 to 81.9 L

###

# Measurement Protocol: Plasma pharmacokinetics of HSK7653 after first and last oral dose
# Assay type: in vivo, human
# Condition Notes: human, plasma, po, median Tmax, dose range 10–50 mg
Recorded Metric: Tmax

Please report the recorded Tmax for CS(=O)(=O)n1cc2c(n1)CN([C@@H]1C[C@H](N)[C@@H](c3cc(F)ccc3F)O[C@@H]1C(F)(F)F)C2 . 1 to 3 h

###

# Measurement Protocol: Plasma pharmacokinetics of HSK7653 after first and last oral dose
# Format: in vivo, human
# Condition Notes: human, plasma, oral, 25 mg, Tmax, median (min, max), single (first dose)
Recorded Metric: Tmax (h)
State the answer as a number, implicitly in h.

Please report the recorded Tmax for CS(=O)(=O)n1cc2c(n1)CN([C@@H]1C[C@H](N)[C@@H](c3cc(F)ccc3F)O[C@@H]1C(F)(F)F)C2 . 2

###

# Measurement Protocol: Plasma pharmacokinetics of HSK7653 after first and last oral dose
# Type: in vivo, human
# Condition Notes: human, plasma, oral, 10 mg, Tmax, median (min, max), multiple (last dose)
Recorded Metric: Tmax (h)
State the answer as a number, implicitly in h.

Please report the recorded Tmax for CS(=O)(=O)n1cc2c(n1)CN([C@@H]1C[C@H](N)[C@@H](c3cc(F)ccc3F)O[C@@H]1C(F)(F)F)C2 . 1

###

# Measurement Protocol: Plasma pharmacokinetics of HSK7653 after first and last oral dose
# Assay type: in vivo, human
# Condition Notes: human, plasma, oral, 25 mg, Cmax, mean ± SD (CV%), multiple (last dose)
Recorded Metric: Cmax (ng/mL)
State the answer as a number, implicitly in ng/mL.

Please report the recorded Cmax for CS(=O)(=O)n1cc2c(n1)CN([C@@H]1C[C@H](N)[C@@H](c3cc(F)ccc3F)O[C@@H]1C(F)(F)F)C2 [HSK7653] . 411

###

# Measurement Protocol: Plasma pharmacokinetics of HSK7653 after first and last oral dose
# Format: in vivo, human
# Condition Notes: human, plasma, po
Recorded Metric: half-life

Please report the recorded half-life for CS(=O)(=O)n1cc2c(n1)CN([C@@H]1C[C@H](N)[C@@H](c3cc(F)ccc3F)O[C@@H]1C(F)(F)F)C2 [HSK7653] . 64 to 87 h
